# Tested on: OVCAR-3 ovarian
# TEST_PROTOCOL: NCI tumour cell line growth inhibition, 48 h
The reader will find reported TGI values listed item by item below.
EXPERIMENTAL_ENDPOINT: TGI

# LINE_NOTATION, REPORTED_VALUE
records = [
    ("Oc1c(-c2ccccc2)sc2ccccc12", "36.2 µM"),
    ("COc1cc(C(N)=O)cc(NC(=O)/C=C/c2ccccc2)c1OC", "> 100 µM"),
    ("CN(C)CC(CO)(CN(C)C)CN(C)C", "> 100 µM"),
    ("CN(C)C=Nc1cccc2cnccc12", "> 100 µM"),
    ("CC[O-].Cc1ccc2cccc([O-])c2n1.Cc1ccc2cccc([O-])c2n1.Cc1ccc2cccc([O-])c2n1.[Ti+4]", "> 100 µM"),
]

Data provenance is PubChem BioAssay (NCI).
